# MEASUREMENT_DESCRIPTION: folding stability dG unfold from chymotrypsin proteolysis; higher = more stable
OBSERVATION_TYPE: folding stability dG unfold
Give your result as the value with the unit written after it.

Ask | Bench note: what folding stability dG unfold did SAGKIKIEKENGEVKIEIEVPEEEIEKLKKLLEELKKKGFEVEKVEVKVEKKEDGTVKVTIKVKIKPKPSAG [r5_739_TrROS_Hall] show?
Reply | 3.42 kcal/mol

Ask | Bench note: what folding stability dG unfold did VNPRTLTYDPVTNRIDAATPDGTPVTVTAGSSGYTATVTDPATGAPTVVPLTEAELAALEADPAFPLATSNS [r1_18_JUSTAS] show?
Reply | 0.653 kcal/mol

Ask | Bench note: what folding stability dG unfold did SASKRFVFPVLGDEQTITVDVPEDYYVRITVFFPDGSEPILIPPNEKVTITVPRKDAFVVIEVFPKNEESAG [r14_882_TrMRF] show?
Reply | 2.35 kcal/mol

Ask | Bench note: what folding stability dG unfold did SMKIKSIKIEPIRIGDEEYFLIPIEVDGEEIPPEEVKRLVEELFEKLGLPLDPVLLEDPESDIVLVLARGSA [r9_717_TrMRF] show?
Reply | 1.34 kcal/mol

Ask | Bench note: what folding stability dG unfold did SAGGSAGGSPKPKRRTIEFPLKVPPGMSPEDVADELKQQPGFEIDEIDEVDPDEGWVKISVELSAGGSAGGS [r12_712_TrROS] show?
Reply | -0.377 kcal/mol

Ask | Bench note: what folding stability dG unfold did SAGGSAGGSWFIRVEYKRPNGQPKTLQIPVPRDQLKKMSIDEIKDRAENLGLPPNVKIEWYPFSAGGSAGGS [r12_742_TrROS] show?
Reply | 1.78 kcal/mol

Ask | Bench note: what folding stability dG unfold did SAGGSAGGSAMTPVTIKVTLTNPATGSTTTKTIYVPEPNPSVEEIKKKLPSDWTVTSITLSSAGGSAGGSAG [r3_80_JUSTAS] show?
Reply | 0.828 kcal/mol

Ask | Bench note: what folding stability dG unfold did SASLTLTITLPDGAKITSITVEEVDGELVLTEITVETTNENGEKTTVTRTIVLKLPPAPPAHPDDPALKSAG [r14_95_TrROS_Hall] show?
Reply | 2.63 kcal/mol

Ask | Bench note: what folding stability dG unfold did SAGMKITYKRPDGTPAEPIPEEEIKKLAEEKAKELYPNKPDATVTVTITIKTNNNEPLIITMTVTIKNESAG [r5_526_JUSTAS] show?
Reply | 1.13 kcal/mol

Ask | Bench note: what folding stability dG unfold did SAGGPPPKWVKIDIFIFIYNPDNGRPIFIRITSIEIRLDENNELDVEIEFEVFDPNGKPVKYTMTFKSAGGS [r16_200_TrROS] show?
Reply | 4.8 kcal/mol

Ask | Bench note: what folding stability dG unfold did SAGGSAGGSISQIKSKIKKILEEKGLKPTKIVIKKTEKLKNKIKVEVEVEIGKGPKISMIIEIESAGGSAGG [r6_841_JUSTAS] show?
Reply | 2.43 kcal/mol

Ask | Bench note: what folding stability dG unfold did SAGGMERKTLTVNVPASVPASELLSLLEGYGDVLLVLGNGEVLHIKRDDAPGLEGLPLSDDDVLELYYSAGG [r13_399_TrMRF] show?
Reply | 1.23 kcal/mol

Ask | Bench note: what folding stability dG unfold did SAGGSAGGSAKEYIVRIKVRLKDGEEVEIEITVSEEELEELKKALESLPNIEEAEIEVFPLPSAGGSAGGSA [r18_157_TrROS_Hall] show?
Reply | 3.53 kcal/mol

Ask | Bench note: what folding stability dG unfold did MEELEKLPGIKVEPIREEDGRLYLRVTFTDEVAKALGKPPVTVLIEVEPGEELELSPELRELLRKLGIEVVS [r1_256_TrROS_Hall] show?
Reply | 4.34 kcal/mol

Ask | Bench note: what folding stability dG unfold did SAGGSAGGSAGMELTVKVPPDTTPEEVKEKIEKELGLKVKSISVSSFPDGTRTVTITIGPSAGGSAGGSAGG [r17_222_JUSTAS] show?
Reply | 2.45 kcal/mol

Ask | Bench note: what folding stability dG unfold did SAGGSAGGSAGGMTTTTTAPESGDLVTIHPEKGIAVVTSPEGKVTEVPIDPDDYSVEPASAGGSAGGSAGGS [r10_568_JUSTAS] show?
Reply | 1.57 kcal/mol

Ask | Bench note: what folding stability dG unfold did SAGGSAGGSAGGKVVKKVKVLTKTPKGGYKVIEVDFTDPSAVVEEAKKAGLEVLKVEEVSAGGSAGGSAGGS [r10_882_TrMRF] show?
Reply | 1.05 kcal/mol

Ask | Bench note: what folding stability dG unfold did SAGGDKKKVKIHIFPPPGMPMDNFANYIQDQLGWDRNNIKVEPMDSPQEAERRAEKNGKPEIVIFFRSAGGS [r8_245_TrROS] show?
Reply | 1.02 kcal/mol

Ask | Bench note: what folding stability dG unfold did SAGGSMPETVKVRVRNADGSLLTLEITRDADGELTVTLEVDGKTVELSLEELEKLPPGVEVVEVEPSAGGSA [r2_431_TrROS_Hall] show?
Reply | 2.44 kcal/mol

###

# MEASUREMENT_DESCRIPTION: folding stability dG unfold from trypsin proteolysis; higher = more stable
Binary call on folding stability dG unfold: Fulfilled from 2 kcal/mol upward, Not fulfilled beneath that.

Ask | Say whether SAGGKKPKIEVKIEFDEETGKLRIEIRTEDGKLIAEKEIEIDGVLFKVKVIVKDGKLVIEIEAFPKKSAGGS [r16_631_TrROS_Hall] shows folding stability dG unfold of 2 kcal/mol or more.
Reply | Fulfilled

Ask | Say whether SAGGVEREPTEEDLLVATAEFLIEVRDPDSDYPLVEPVPITLPFTSLEDLLEELRRLKAEVEEALASSAGGS [r16_624_TrMRF] shows folding stability dG unfold of 2 kcal/mol or more.
Reply | Not fulfilled

Ask | Say whether SAGGSAGGSSAPPGEVRTEAVSLTVRSTVPITYPNSPTTTLSLTTTLTVTLTREVSPVRPEVESAGGSAGGS [r20_14_JUSTAS] shows folding stability dG unfold of 2 kcal/mol or more.
Reply | Fulfilled

Ask | Say whether SNYINEPIYVPPSVDPEEVKKKVEERVEEIKKKLGLPPNISVSVTPVALPEGSVTYRVTVTVDGETYNSSSA [r9_776_JUSTAS] shows folding stability dG unfold of 2 kcal/mol or more.
Reply | Not fulfilled

Ask | Say whether SMKPGDTVIVKIEIEKKVDGKTVKKTIEKEIKIKPGETVEIELKGLPKGAKVRVEIFNADGKLIEEKELPSA [r9_478_TrROS_Hall] shows folding stability dG unfold of 2 kcal/mol or more.
Reply | Fulfilled

Ask | Say whether SNPENIDKITFTFRWPDGNPMEIEIDPDGTVEYEYPNGWEIEITIDPDDGKLTIEMTFPNGRPQEQKIPISA [r9_99_TrROS] shows folding stability dG unfold of 2 kcal/mol or more.
Reply | Not fulfilled

Ask | Say whether SEPWELVEERELPPNAVITFPNGEKLEIDPEKARVRVWRRPDSVRVLVVLKDGTVLEFEFYAPPRVTDDDSA [r9_348_TrMRF] shows folding stability dG unfold of 2 kcal/mol or more.
Reply | Fulfilled

Ask | Say whether SAGGKMSLEDIKEVKITKISEEELKKNGTIKIEIYNKNGKLIKTIEIKIKPVKVKDKDGKEKTLEELKSAGG [r13_864_TrROS_Hall] shows folding stability dG unfold of 2 kcal/mol or more.
Reply | Not fulfilled

Ask | Say whether SAGGSAGGSAGPEIRVDDLEDGVVRITTVNVDPSTGAPVATTTTTLPRESLSPEVVALLSSAGGSAGGSAGG [r11_376_JUSTAS] shows folding stability dG unfold of 2 kcal/mol or more.
Reply | Not fulfilled

###

# MEASUREMENT_DESCRIPTION: folding stability dG unfold (combined trypsin and chymotrypsin); higher = more stable
Field: folding stability dG unfold. Provide a value for each of the sequences that follow.

Ask | Bench note: what folding stability dG unfold did SAGGSGMNITVEPVLSPDGTLTVTTTDPATGKTVSTTTTPVPRGPLPPPVRPLLGLDDRNGRPLLLSAGGSA [r2_78_JUSTAS] show?
Reply | < -1 kcal/mol

Ask | Bench note: what folding stability dG unfold did SAGGSAGGSKKRTILIQFPNGSPEEAVDNIKNWLRALGNEPIPLEDVKIQWYPGNPGYFQIEISAGGSAGGS [r12_122_TrROS] show?
Reply | 2.53 kcal/mol

Ask | Bench note: what folding stability dG unfold did SAGSMTVSESTENGVRTTTVTLPSRPLTVTVTFPDGKVTATTTDPAAPEAATTTPLGTPAVETLIAELSSAG [r14_716_JUSTAS] show?
Reply | -0.609 kcal/mol

Ask | Bench note: what folding stability dG unfold did SAGGSAGGSMVVTTTEFDLNGVKATLSIDDTGSATAKIPDPSYKEDVLKLIPSSFSLTSFDAESAGGSAGGS [r12_9_JUSTAS] show?
Reply | < -1 kcal/mol

Ask | Bench note: what folding stability dG unfold did SAGGFIRIETPNGKKISPEVREEAEEAIRDGDWDDAVKKISDWLRERFGHPMPIKIEVMMPPPKPPKSAGGS [r8_48_TrROS] show?
Reply | 0.995 kcal/mol

Ask | Bench note: what folding stability dG unfold did SAGGSAGGSAGGSEKPPIKLKIKVYDPETNELVSEVEVELEPGQSLEELLKKFDVVEIESAGGSAGGSAGGS [r4_187_TrROS_Hall] show?
Reply | 2.66 kcal/mol

Ask | Bench note: what folding stability dG unfold did SAGGMLTLPATVEGDELTLTLPTGATKTVSPNTTVKLPDGTVVSLTPVSPSSVSATVTPLPADATRPSAGGS [r16_277_JUSTAS] show?
Reply | 1.21 kcal/mol

Ask | Bench note: what folding stability dG unfold did SAGGMKIEVEVSDSDIESAAERIAKEVYEKIKAEGKNEDVEVTLTLPNGTRYRIVVDGKGNVKEIIESSAGG [r13_965_JUSTAS] show?
Reply | 3.74 kcal/mol

Ask | Bench note: what folding stability dG unfold did SAGGSAGGSAGGMKTITIKVPSSVSFEEAKKKAEALFPKSIPVKVEYDPKTGTFTVTVESAGGSAGGSAGGS [r10_163_JUSTAS] show?
Reply | 2.17 kcal/mol

Ask | Bench note: what folding stability dG unfold did SAGMTFTVDVEEETFSETKVIRVPVEYDDPALVDVAAAEIREALGIPESESVTVEREPRRATITIVIPASAG [r14_804_JUSTAS] show?
Reply | 0.743 kcal/mol

Ask | Bench note: what folding stability dG unfold did SAGGSAGGMLLVRIKVRRPDGSEETIVLEFESEEELKAAIEELLPPGWEVVEIELVPLGEELPESAGGSAGG [r6_872_TrROS_Hall] show?
Reply | 4.49 kcal/mol

Ask | Bench note: what folding stability dG unfold did SAGGSAGGSAGGWIRNKDGKPVKLEIYPFPVEMWMYRKKPDGGWEPHPMRMPFTFIRITPSAGGSAGGSAGG [r7_90_TrROS] show?
Reply | 1.65 kcal/mol

Ask | Bench note: what folding stability dG unfold did SKIKPGDVVTIMFPFPPGDPDQIREWAYWIARKLGPDVKVKSVEYNPNDPRYVQIEVRVPGGKITIHIMWSA [r9_1079_TrROS] show?
Reply | 3.7 kcal/mol

Ask | Bench note: what folding stability dG unfold did SAGGSAGGSSMPLTVEELLASVGPDKTATVLVPPGTSIPANITPLGTEPEGGWRTFAIPASLVSAGGSAGGS [r12_356_JUSTAS] show?
Reply | -0.971 kcal/mol

Ask | Bench note: what folding stability dG unfold did SAGGSAGGSAGKVTLTIPFTNEDGTKYIAEFTFDELEVEEDVEIKIVSLGENFDLVLKPESAGGSAGGSAGG [r11_733_TrMRF] show?
Reply | 1.63 kcal/mol

Ask | Bench note: what folding stability dG unfold did SAMPIESVEFHPEEGVITLRFRAPAHPDAEKFEIEVVVDGAEAGEIEVEVDPETNEVRALVRVKIPKGASAG [r14_244_TrMRF] show?
Reply | 3.7 kcal/mol

Ask | Bench note: what folding stability dG unfold did SAGGSAGGSAMSVVVKYTVLLTDPVTGKTTVVPVTATLPVSDGTAKTIEEIVAEHPNYEILESAGGSAGGSA [r18_267_JUSTAS] show?
Reply | 1.56 kcal/mol

Ask | Bench note: what folding stability dG unfold did SAGGSAGGSAEEISPEGVATRTLPDGRTVELTQDPAKGTVTTTVYTPSGTPVSSSTTPVNPSAGGSAGGSAG [r3_447_JUSTAS] show?
Reply | < -1 kcal/mol

Ask | Bench note: what folding stability dG unfold did SAGKELVLRVRLYRPVPLEEPRVEEREVVVPRKEDEPIEKVVEELLEPDWVLEVEVFDEGKLIERYYTHSAG [r5_278_TrMRF] show?
Reply | 1.11 kcal/mol

Ask | Bench note: what folding stability dG unfold did SAGGSAGGSAGEKTLKIVADSEEEAEALAKELAEKYNLEVTIERNPEEEGKYVITIKIKPSAGGSAGGSAGG [r11_797_TrROS_Hall] show?
Reply | 3.17 kcal/mol

Ask | Bench note: what folding stability dG unfold did SAGMDKPLKVLEIGGAILPNTGKVVLKAKVEDPDSNTPLDLTLTLPVVDPVTGKPYIFTASYTYESPLSAGG [r19_129_TrMRF] show?
Reply | 0.681 kcal/mol

Ask | Bench note: what folding stability dG unfold did SLLELAKQANGPLKINVKSEWVTLPDGTPVEIINVEVSQDPNSDVATVTKTVVDPDKDTSSTSTSTIPLGSS [r1_448_JUSTAS] show?
Reply | -0.0266 kcal/mol
